Molecular target: T1, mmIL4R-mFc (Macaca mulatta IL-4R extracellular domain fused to murine IgG2a Fc) (Macaca mulatta)
T1 chain: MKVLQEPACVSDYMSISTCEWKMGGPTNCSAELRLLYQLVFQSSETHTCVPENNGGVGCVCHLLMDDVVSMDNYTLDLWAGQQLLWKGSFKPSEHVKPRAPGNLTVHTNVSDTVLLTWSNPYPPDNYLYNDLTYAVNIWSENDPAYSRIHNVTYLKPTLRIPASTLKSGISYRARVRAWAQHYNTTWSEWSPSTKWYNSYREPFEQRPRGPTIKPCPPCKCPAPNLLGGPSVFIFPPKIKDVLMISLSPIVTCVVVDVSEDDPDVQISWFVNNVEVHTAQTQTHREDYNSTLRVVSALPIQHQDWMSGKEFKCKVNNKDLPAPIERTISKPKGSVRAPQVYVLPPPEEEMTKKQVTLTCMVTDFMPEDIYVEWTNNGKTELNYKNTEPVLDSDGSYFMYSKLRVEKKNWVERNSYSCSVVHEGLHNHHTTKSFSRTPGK
Assay: SPR Biacore X100, antibody captured, mmIL4R-mFc as analyte
Items are presented alongside their recorded koff.
Remember to follow the number with its unit.

Record excerpt, results attached:
# binder, koff
records = [
    ("L18D7-IgG4 (antibody, V domains shown, also called S1E6 light chain mutant L18D7) VH: EVQLVESGGGLVQPGGSLRLSCAVSGFTFSSYAMSWVRQAPGKGLEWVSSITGGGGGIYYADSVKGRFTISRDNSKNTVYLQMNSLRAEDTAVYYCAKDRISITIRPRYFGLDFWGQGTTVTVSS VL: DIVMTQSPLSLPVTPGEPASISCRSSQSLLYSIGYNYLDWYLQKSGQSPQLLIYLGSNRASGVPDRFSGSGSGTDFTLKISRVEAEDVGFYYCMQSFKAPYTFGQGTKLEIKR", "0.000984 s⁻¹"),
    ("S1E6-IgG4 (antibody, V domains shown, also called monoclonal antibody S1E6) VH: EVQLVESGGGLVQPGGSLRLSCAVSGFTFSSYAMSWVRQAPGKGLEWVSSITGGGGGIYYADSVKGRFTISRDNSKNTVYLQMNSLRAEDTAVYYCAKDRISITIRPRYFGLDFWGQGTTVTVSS VL: DIVMTQSPLSLPVTPGEPASISCRSSRSVLYGNGYNYLDWYLQKSGQSPQLLIYLGTNVAAGVPDRFSGSGSGTDFTLKISRVEAEDVGFYYCMQSLRTPYTFGQGTKLEIKR", "0.0049 s⁻¹"),
]

Now for a further binder.
Item: L28C9-IgG4 (antibody, V domains shown, also called S1E6 light chain mutant L28C9) VH: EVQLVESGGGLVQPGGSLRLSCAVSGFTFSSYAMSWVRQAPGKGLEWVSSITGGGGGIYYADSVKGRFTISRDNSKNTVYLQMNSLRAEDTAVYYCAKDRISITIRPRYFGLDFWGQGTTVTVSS VL: DIVMTQSPLSLPVTPGEPASISCRSSQNVVYGNGYNYLDWYLQKSGQSPQLLIYLGNNVAAGVPDRFSGSGSGTDFTLKISRVEAEDVGFYYCMQSLKAPYTFGQGTKLEIKR | koff: 0.00594 s⁻¹
